// compounds with pIC50 on Cathepsin B (Homo sapiens, UniProt P07858), multi-source literature
# pIC50 is unitless: minus log10 of the molar concentration; print number only

Solved cases below.
{"COMPOUND": "Cc1cc(-c2ccc3cc(C(=O)NC4(C(=O)NC5(C#N)CC5)CCC(F)(F)CC4)oc3c2)ccc1-n1cncn1", "STUDY_TARGET": "Cathepsin B (Homo sapiens, UniProt P07858)", "pIC50": 6.36}
{"COMPOUND": "N#CC1(NC(=O)C2(NC(=O)c3cc4ccc(-c5ccc(C6(F)CCS(=O)(=O)CC6)cc5)cc4o3)CCCCC2)CC1", "STUDY_TARGET": "Cathepsin B (Homo sapiens, UniProt P07858)", "pIC50": 5.80}
{"COMPOUND": "CCONC(=O)C(=O)C(Cc1ccccc1)NC(=O)c1cc(C#Cc2ccccc2)nc2ccccc12 (centres unmarked)", "STUDY_TARGET": "Cathepsin B (Homo sapiens, UniProt P07858)", "pIC50": 6.36}
{"COMPOUND": "Cc1nnc2nc3c(nn12)C(=O)c1ccccc1-3", "STUDY_TARGET": "Cathepsin B (Homo sapiens, UniProt P07858)", "pIC50": 4.62}
{"COMPOUND": "c1ccc(OCCCON=C2c3ccccc3-c3nn4nnnc4nc32)cc1 (mixture of isomers)", "STUDY_TARGET": "Cathepsin B (Homo sapiens, UniProt P07858)", "pIC50": 5.42}

Q: Report value: pIC50, system: Cathepsin B (Homo sapiens, UniProt P07858), compound: N#CC1(NC(=O)C2(NC(=O)c3cc4ccc(-c5ccc6c(c5)OCCO6)cc4o3)CCC(F)(F)CC2)CC1
Result: 5.64

Q: Report value: pIC50, system: Cathepsin B (Homo sapiens, UniProt P07858), compound: CCCc1nnc2nc3c(nn12)C(=O)c1ccccc1-3
Result: 5.27

Q: Report value: pIC50, system: Cathepsin B (Homo sapiens, UniProt P07858), compound: COC[C@@H]1C[C@@H](NC(=O)c2nc(-c3cc(C#N)ccc3OC)co2)CN1C#N
Result: 4.28

Q: Report value: pIC50, system: Cathepsin B (Homo sapiens, UniProt P07858), compound: N#CC1(NC(=O)C2(NC(=O)c3cc4ccc(-c5csc(N6CCCC6=O)n5)cc4o3)CCCCC2)CC1
Result: 5.92

Q: Report value: pIC50, system: Cathepsin B (Homo sapiens, UniProt P07858), compound: CS(=O)(=O)c1ccc(-c2ccc3cc(C(=O)NC4(C(=O)NC5(C#N)CC5)CCCCC4)oc3c2)cc1
Result: 6.06

Q: Report value: pIC50, system: Cathepsin B (Homo sapiens, UniProt P07858), compound: COCc1nnc2nc3c(nn12)-c1ccccc1C3=O
Result: 6.50
